Endpoint: log10 IC50. System: Akt1 (Homo sapiens, UniProt P31749). Items follow.
Sequence (P31749 whole entry): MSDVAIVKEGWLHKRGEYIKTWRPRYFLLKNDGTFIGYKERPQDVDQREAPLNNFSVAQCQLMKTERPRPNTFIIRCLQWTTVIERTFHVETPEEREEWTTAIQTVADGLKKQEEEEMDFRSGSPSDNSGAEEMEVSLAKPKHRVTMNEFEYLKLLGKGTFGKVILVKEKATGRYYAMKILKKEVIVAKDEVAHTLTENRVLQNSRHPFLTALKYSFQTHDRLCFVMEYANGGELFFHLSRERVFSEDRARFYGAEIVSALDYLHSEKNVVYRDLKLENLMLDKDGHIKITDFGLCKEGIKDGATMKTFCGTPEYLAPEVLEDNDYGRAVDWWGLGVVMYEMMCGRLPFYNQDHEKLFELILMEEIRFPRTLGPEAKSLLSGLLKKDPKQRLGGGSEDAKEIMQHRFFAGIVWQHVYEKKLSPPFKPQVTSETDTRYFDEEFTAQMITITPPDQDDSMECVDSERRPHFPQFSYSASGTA
recorded-endpoint: log10 IC50 (log10 of the value in nM)

compound	log10 IC50
CC1CN(C[C@@H](Nc2ncnc3c(C(N)=O)cccc23)c2ccc(F)c(C(F)(F)F)c2)C1 [Example 46]	0.88
NC(=O)c1cccc2c(N[C@H](CN3CCC3)c3ccc(F)c(F)c3F)ncnc12 [Example 19]	1.36
COc1c(F)cc([C@@H](CN2CCC2)Nc2ncnc3c(C(N)=O)cccc23)cc1F [Example 38]	2.15
NC(=O)c1cccc2c(N[C@H](CN3CCC3)c3ccc(Cl)c(C(F)(F)F)c3)ncnc12 [Example 5]	0.15
NC(=O)c1cccc2c(N[C@H](CN3CCC3)c3ccc(F)cc3Cl)ncnc12 [Example 24]	1.89
COc1cc(C(N)=O)c2ncnc(N[C@H](CN3CCC3)c3ccc(F)c(C(F)(F)F)c3)c2c1 [Example 47]	0.18
NC(=O)c1cccc2c(N[C@H](CN3CCC3)c3ccc(F)c(Cl)c3)ncnc12 [Example 7]	1.08
NC(=O)c1cccc2c(N[C@H](CN3CCC3)c3ccc(F)c(C(F)(F)F)c3)ncnc12 [Example 31]	0.86
